List of pIC50 values.
molecular target: truncated human IRE1a WT protein, containing the catalytic part (aa 547-977) (Homo sapiens); construct: containing the catalytic part (aa 547-977); experiment: IRE1a biochemical enzyme splice assay; conditions: 20 nM protein, 500 nM fluorescently quenched IRE1a substrate, 40 min at room temperature; read-out: EnzymeSplice_hIRE1a_IC50 (IC50)
Sequence (O75460 547-977): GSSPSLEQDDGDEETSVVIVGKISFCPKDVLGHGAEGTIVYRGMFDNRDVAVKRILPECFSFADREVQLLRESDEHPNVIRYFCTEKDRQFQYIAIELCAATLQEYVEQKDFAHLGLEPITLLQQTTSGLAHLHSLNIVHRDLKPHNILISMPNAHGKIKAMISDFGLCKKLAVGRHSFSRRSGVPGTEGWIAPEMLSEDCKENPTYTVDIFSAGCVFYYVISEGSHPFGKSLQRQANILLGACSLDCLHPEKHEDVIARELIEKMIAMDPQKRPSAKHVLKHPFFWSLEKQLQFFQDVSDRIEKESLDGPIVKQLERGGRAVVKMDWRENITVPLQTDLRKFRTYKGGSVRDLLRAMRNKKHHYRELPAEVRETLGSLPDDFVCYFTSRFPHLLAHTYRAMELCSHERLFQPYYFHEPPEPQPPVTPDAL
pIC50: −log10 of the molar value.

See these solved cases before continuing.
compound_smiles	pIC50
CCc1cc(-c2ccc3c(NS(=O)(=O)C4CCCC4)ncnn23)cc2cnc(N[C@H]3CCCNC3)nc12	> 7.00
CCc1cc(-c2ccc3c(NS(=O)(=O)CCC(F)(F)F)ncnn23)cc2cnc(N[C@H]3CCCNC3)nc12	> 7.00
CCc1cc(-c2ccc3c(NS(=O)(=O)c4ccccc4Cl)ncnn23)cc2cnc(N[C@H]3CCCCNC3)nc12	> 7.00
CCc1cc(-c2ccc3c(NS(=O)(=O)c4ccccc4Cl)ncnn23)cc2cnc(N[C@H]3CC[C@H](O)CC3)nc12	> 7.00
CCc1cc(-c2ccc3c(NS(=O)(=O)c4ccccc4Cl)ncnn23)cc2cnc(N[C@H]3CC[C@H](O)C3)nc12	> 7.00

Qu. Note pIC50 for the molecule shown: CCc1cc(-c2cnc3c(NS(=O)(=O)c4ccccc4Cl)nccn23)cc2cnc(N[C@H]3CCCNC3)nc12
Ans. > 7.00

Qu. Note pIC50 for the molecule shown: CCc1cc(-c2ccc3c(NS(=O)(=O)c4ccccc4Cl)ncnn23)cc2cnc(N[C@H]3CCCC[C@@H]3N)nc12
Ans. < 6.00
